Assay: Plasma protein binding in human
Format: ADME, cell-free
Conditions: read-out: PPB (converted)
outcome-measure: fraction unbound
Just the number, please.

Query COCCCS(=O)(=O)c1ccc(-c2ccc(CCN3CCC[C@H]3C)cc2)cc1 yields fraction unbound of 0.26

* * *

Provide the reported pKi of each item.
Molecular target: Histamine H3 receptor (Rattus norvegicus, UniProt Q9QYN8)
Sequence (Q9QYN8 whole entry): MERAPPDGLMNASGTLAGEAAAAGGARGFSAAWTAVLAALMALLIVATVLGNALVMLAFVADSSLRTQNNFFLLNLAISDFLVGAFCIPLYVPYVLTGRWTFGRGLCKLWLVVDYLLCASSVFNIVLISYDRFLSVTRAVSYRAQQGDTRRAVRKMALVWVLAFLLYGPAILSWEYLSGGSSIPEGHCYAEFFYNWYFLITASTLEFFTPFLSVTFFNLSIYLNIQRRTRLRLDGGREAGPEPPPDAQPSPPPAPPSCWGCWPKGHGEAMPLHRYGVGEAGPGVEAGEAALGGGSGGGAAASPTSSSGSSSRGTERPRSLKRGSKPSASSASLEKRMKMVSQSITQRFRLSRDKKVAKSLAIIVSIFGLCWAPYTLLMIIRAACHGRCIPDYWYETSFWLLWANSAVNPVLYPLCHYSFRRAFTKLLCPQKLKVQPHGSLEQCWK
Convention used: pKi is expressed as -log10 of the molar concentration.

Query C[C@@H]1CCCN1CCc1ccc(-c2ccc(S(C)(=O)=O)cc2)cc1 yields pKi of 8.89

Query CCOCCS(=O)(=O)c1ccc(-c2ccc(CCN3CCC[C@H]3C)cc2)cc1 yields pKi of 9.00

Query COCS(=O)(=O)c1ccc(-c2ccc(CCN3CCC[C@H]3C)cc2)cc1 yields pKi of 8.61

Query C[C@@H]1CCCN1CCc1ccc(-c2ccc(S(=O)(=O)C3CCCC3)cc2)cc1 yields pKi of 9.00

Query C[C@@H]1CCCN1CCc1ccc(-c2ccc(S(=O)(=O)CC3CCOCC3)cc2)cc1 yields pKi of 9.77
